Assay target: ZFP SBS#767 (synthetic, UniProt P08047)
Sequence (P08047 other isoform, or with tags, fused parts or gaps): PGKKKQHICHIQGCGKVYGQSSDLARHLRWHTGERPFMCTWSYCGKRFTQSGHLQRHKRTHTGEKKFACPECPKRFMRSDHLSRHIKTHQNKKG
Procedure text: EMSA
Assay setup: tags: MBP fusion

Binder	Kd [nM]
GGGGGAGCTG (dsDNA) DNA 1: GGGGGAGCTG DNA 2: CAGCTCCCCC	335
